target-entity: SP168 receptor (Homo sapiens, UniProt Q9H244)
Sequence (Q9H244 whole entry): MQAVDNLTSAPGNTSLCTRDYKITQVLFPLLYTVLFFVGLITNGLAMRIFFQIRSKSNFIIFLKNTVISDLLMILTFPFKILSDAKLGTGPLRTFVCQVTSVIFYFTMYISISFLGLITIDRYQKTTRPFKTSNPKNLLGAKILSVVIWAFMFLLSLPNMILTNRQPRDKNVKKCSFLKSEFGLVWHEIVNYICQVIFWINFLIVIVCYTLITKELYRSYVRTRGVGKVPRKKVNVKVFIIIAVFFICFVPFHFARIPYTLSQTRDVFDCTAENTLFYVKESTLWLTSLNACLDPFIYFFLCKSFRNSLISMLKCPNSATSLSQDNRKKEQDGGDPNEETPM
assay-summary: FLIPR Ca2+ assay, SP168 co-transfected with Gq/i3 in NIH3T3 cells (agonists)
measurement-setup: FLIPR, peak Ca2+ increment, SP168 + Gq/i3 transfected cells
assay-metric: EC50 (nM)
// units = nM; emit number, no label

>>> observed_result("CSc1nc(N)c2ncn([C@@H]3O[C@H](COP(=O)(O)OP(=O)(O)O)[C@@H](O)[C@H]3O)c2n1")
2.3
>>> observed_result("CSc1nc(N)c2ncn([C@@H]3O[C@H](COP(=O)(O)OP(=O)(O)OP(=O)(O)O)[C@@H](O)[C@H]3O)c2n1")
3.4
>>> observed_result("Nc1ncnc2c1ncn2[C@@H]1O[C@H](COP(=O)(O)OP(O)(O)=S)[C@@H](O)[C@H]1O")
89
>>> observed_result("Nc1ncnc2c1ncn2[C@@H]1O[C@H](COP(=O)(O)OP(=O)(O)OP(O)(O)=S)[C@@H](O)[C@H]1O")
1200
>>> observed_result("Nc1nc(Cl)nc2c1ncn2[C@@H]1O[C@H](COP(=O)(O)OP(=O)(O)OP(=O)(O)O)[C@@H](O)[C@H]1O")
470

Measured EC50 (SP168 receptor (Homo sapiens, UniProt Q9H244)), entry Nc1ncnc2c1ncn2[C@@H]1O[C@H](COP(=O)(O)OP(=O)(O)O)[C@@H](O)[C@H]1O [ADP, 5′-adenosine diphosphate] : 74
